Recorded values, source patent US11413278B2.

Test system: NRF2
test-protocol: qPCR analysis of NRF2-regulated genes
Format: cell-based, human
test-context: Homo sapiens; 10 μM, 24 hrs, WI-38 cells, qPCR, normalized to B2M, n = 4; read-out: HMOX1 expression, normalized fold change (NRF2-regulated gene)
Would you mind telling me the reported fold induction at 10 µM of each entry?
One number for each entry.

Solved entries (count: 5):
O=[N+]([O-])c1ccccc1S(=O)(=O)Nc1cccc2cccnc12 [Gr-3A] :: 1.41
O=C(Nc1ccc(Cl)c(Cl)c1)c1ccc([N+](=O)[O-])o1 [Gr-1G] :: 0.5
Cc1cc(C)c(C(=O)/C=C/c2ccccc2F)c(O)n1 [O18] :: 23.8
O=C(Nc1cccc(Cl)c1)c1ccc([N+](=O)[O-])o1 [Gr-1D] :: 4.68
CC1C(=O)C(C)C(c2cc(Cl)ccc2O)NC1c1cc(Cl)ccc1O (stereo not shown) [O6] :: 3.85

Batch: fold induction at 10 µM for all items listed.
1. O=C(NCc1cccnc1)/C(=C\c1cccc(Oc2ccccc2)c1)S(=O)(=O)c1ccccc1 [Gr-7A]
2. CNC(=O)/C(C#N)=C/c1c(Oc2ccc(C(C)(C)C)cc2)nc2ccccn2c1=O [Gr-5D]

1. 15.2
2. 2.49

###

Would you mind telling me the reported ILS at 66 µM of each entry?
Test system: C. elegans
test-protocol: C. elegans lifespan assays (liquid and plate)
Format: in vivo, Caenorhabditis elegans
test-context: Caenorhabditis elegans, Assay 5(ac); at 66 uM, 1.0 × 10^11 bacteria/ml, CF512 worms, no FuDR; read-out: Lifespan assay on plates
One number for each entry, in %.

Oc1cc(-c2ccccc2)nc2c(-c3ccc(Cl)cc3)c(Cc3ccccc3)nn12 :: 8.3
O=C(NCc1cccnc1)/C(=C\c1cccc(Oc2ccccc2)c1)S(=O)(=O)c1ccccc1 :: 2.7
O=C1NCCCc2cc(Cl)sc21 :: -2.2
O=C1NC(=O)c2cccc3cccc1c23 :: 10.2
CO/C(O)=C1\C(C)=NC2=C(C(=O)CC(c3cccs3)C2)C1c1ccc(F)c(F)c1 (stereo not shown) :: 46.3
COc1cccc(/C=C2\CN(C)C/C(=C\c3cccc(OC)c3OC)C2=O)c1OC :: -0.3
Cc1cc(N)n(-c2ccccc2C(=O)O)n1 :: -2.7
O=[N+]([O-])c1ccccc1S(=O)(=O)Nc1cccc2cccnc12 :: 8.4

Batch: ILS at 66 µM for all items listed.
1. CC(Nc1cc(C)ccn1)=C(C#N)C#N
2. [O-][n+]1onc2c3nsnc3c(Br)cc21

1. 9.8
2. 17.8

###

System: FOXO3
test-protocol: qPCR analysis of FOXO3-regulated genes
Assay type: cell-based, human
test-context: Homo sapiens; 10 μM, 24 hrs, WI-38 cells, qPCR, normalized to B2M, n = 4; read-out: DDB1 expression, normalized fold change (FOXO3-regulated gene)
Would you mind telling me the reported fold induction at 10 µM of each entry?

Solved entries (count: 8):
COC(=O)CCc1sc2c(c1[N+](=O)[O-])NC(=O)CCC2 :: 1.25
O=C(c1ccc([N+](=O)[O-])o1)N1CCc2ccccc21 :: 1.27
O=C(/C=C/c1cn(-c2ccccc2)nc1-c1cccnc1)c1ccccc1 :: 1.19
COc1ccc(C(=O)/C=C/c2cccc(Cl)c2)c(OC)c1 :: 1.51
O=C(/C(=C/c1ccc(Cl)cc1)c1nc2ccccc2[nH]1)c1ccccc1 :: 1.41
COc1ccc(C(=O)/C=C/c2ccc(F)cc2)c(OC)c1 :: 1.2
NS(=O)(=O)c1ccc(NC(=O)c2ccc([N+](=O)[O-])o2)cc1 :: 1.36
O=C(NCc1cccnc1)/C(=C/c1ccc(-c2ccc(Cl)cc2)o1)S(=O)(=O)c1ccccc1 :: 1.36

Need fold induction at 10 µM, item "O=C(Nc1cccc(Cl)c1)c1ccc([N+](=O)[O-])o1"
1.18
